# TARGET SYSTEM: T1, VEGF-D (recombinant human; source not given) (human, UniProt O43915 89-205, limits assumed)
# T1 construct: also used here as target of IC50 values averaged over Source 1 and Source 2; also called vascular endothelial growth factor-D
# T1 sequence: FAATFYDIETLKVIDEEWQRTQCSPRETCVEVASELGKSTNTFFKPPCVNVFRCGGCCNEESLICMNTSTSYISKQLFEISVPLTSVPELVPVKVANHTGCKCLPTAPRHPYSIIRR
# ASSAY PROCEDURE: SPR (BIAcore), KD against that of scFv 1A
Reported Fold-improvement with respect to clone 1A values are given for each entry in this list.
Field: numeric (fold). Do not append units.

| BINDER | QUANTITATIVE RESULT |
| --- | --- |
| scFv clone DI26 (scFv, also called DI126) scFv: QVQLVQSGAKVKQPGASVKASCKASGYTFTGYNMYWVRQAPGQGLEWMGYIDPYSGDTTYNQKFKGRVTMTTDTSTSTAYMELRSLRSDDTAVYYCARTSYYGGMDYWGRGTLVTVASGGGASGGGGSGGGGSDIVMTQTPLSSPVTLGQPASISCRSSQSLVHSNGNTYLHWLQQRPGQPPRLLIYKVSNRFSGVPDRFSGSGAGTDFTLKISRVEAEDVGVYYCSQSTHVPRTFGQGTKLEIKR | 4.2 |

Give the reported value of Fold-improvement with respect to clone 1A for this record: scFv clone CJ37 (scFv) scFv: QVQLVQSGAEVKQPGASVKVSCKASGYTFTGYNMYWVRQAPGQGLEWMGYIDPYNGDTTYNQKFKGRVTMTTDTSTSTAYMKLRSLRSDDTAVYYCARTSYYGGMDYWGRGTLVTVASGGGASGGGGSGGGGSDIVMTQTPLSSPVTLGQPASISCRSSQSLVHSNGNTYLHWLQQRPGQPPRLLIYKVSNRFSGVPDRFSGSGAGTDFTLKISRVEAEDVGVYYCSQSTHVPRTFGRGTKLEIKR
3.7

Give the reported value of Fold-improvement with respect to clone 1A for this record: scFv clone AR74 (scFv) scFv: QVQLVQSGAEVKQPGASVKVSCKASGYTFTGYNMYWVRQAPGQGLEWMGYIDPYNGDTTYNQKFKGRVTMTTGTSTSTAYMKLRSLRSDDTAVYYCARASYYGGMDYWGRGTLVTVASGGGASGGGGSGGGGSDIVMTQTPLSSPVTLGQPASISCRSSQSLVHSNGNTYLHWLQQRPGQPPRLLIYKVSNRFSGVPDRFSGSGAGTDFTLKISRVEAEDVGVYYCSQSTHVPRTFGQGTKLEIKR
6.2

Give the reported value of Fold-improvement with respect to clone 1A for this record: scFv clone F61 (scFv) scFv: QVQLVQSGAEVKQPGASVKVSCKASGYTFTGYNMYWVRQAPGQGLEWMGYIDPYNGDTTYNQKFKGRVTMTTDTSTSTAYMKLRSLRSDDTAVYYCARTSYYGGMDYWGRGTLVTVASGGGASGGGGSGGGGSDIVMTQTPLSSPVTLGQPASISCRSSQSLVHSNGNTYLHWLQQRPGQPPRLLIYKVSNRFSGVPDRFSGSGAGTDFTLKISRVEAEDVGVYYCSQSTHVPRTFGQGTKLEIKR
4

Give the reported value of Fold-improvement with respect to clone 1A for this record: scFv clone AW61 (scFv) scFv: QVQLVQSGAEVKQPGASVKVSCKASGYTFTGYNMYWVRQAPGQGLEWMGYIDPYNGDTTYNQKFKGRATMTTDTSTSTAYMKLRSLRSDDTAVYYCARTSYYGGMDYWGRGTLVTVASGGGASGGGGSGGGGSDIVMTQTPLSSPVTLGQPASISCRSSQSLVHSNGNTYLHWLQQRPGQPPRLLIYKVSNRFSGVPDRFSGSGAGTDFTLKISRVEAEDVGVYYCSQSTHVPRTFGQGTKLEIKR
3.1

Give the reported value of Fold-improvement with respect to clone 1A for this record: scFv clone A63 (scFv) scFv: QVQLVQSGAKVKQPGASVKASCKASGYTFTGYNMYWVRQAPGQGLEWMGYIDPYNGDTTYNQKFKGRVTMTTDTSTSTAYMELRSLRSDDTAVYYCARTSYYGGMDYWGRGTLVTVASGGGASGGGGSGGGGSDIVMTQTPLSSPVTLGQPASISCRSSQSLVHSNGNTYLHWLQQRPGQPPRLLIYKVSNRFSGVPDRFSGSGAGTDFTLKISRVEAEDVGVYYCSQSTHVPRTFGQGTKLEIKR
2.7
